Target: Human CGRP Receptor (Homo sapiens, UniProt O60894+Q16602)
Construct: Crude membranes were prepared from SK-N-MC cells expressing CGRP receptors; endogenous in cells
Sequence (Q16602 23-461): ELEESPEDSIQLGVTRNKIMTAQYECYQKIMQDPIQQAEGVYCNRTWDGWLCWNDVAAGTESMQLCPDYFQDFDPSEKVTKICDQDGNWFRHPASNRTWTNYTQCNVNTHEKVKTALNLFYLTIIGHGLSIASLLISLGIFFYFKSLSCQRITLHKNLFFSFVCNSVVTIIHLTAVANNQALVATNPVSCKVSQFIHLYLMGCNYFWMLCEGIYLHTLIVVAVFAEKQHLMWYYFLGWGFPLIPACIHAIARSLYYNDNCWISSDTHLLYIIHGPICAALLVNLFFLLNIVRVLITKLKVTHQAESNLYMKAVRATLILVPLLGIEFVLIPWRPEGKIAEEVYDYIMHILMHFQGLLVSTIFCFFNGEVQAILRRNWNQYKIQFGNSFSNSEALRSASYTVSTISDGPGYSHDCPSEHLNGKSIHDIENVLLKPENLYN
Sequence (O60894 27-148): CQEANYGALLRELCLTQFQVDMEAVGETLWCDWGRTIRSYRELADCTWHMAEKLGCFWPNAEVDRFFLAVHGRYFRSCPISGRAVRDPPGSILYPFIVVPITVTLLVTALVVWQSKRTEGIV
Test: Radioligand binding assay, [125I]-CGRP displacement on SK-N-MC membranes
Settings: displacement of [125I]-CGRP (18 pM final), 2 h room temperature
pIC50: −log10 of the molar value.

compound: O=C(N[C@H]1CC[C@H](c2cccc(F)c2F)Cc2cccnc21)N1CCC(n2c(=O)[nH]c3ncccc32)CC1 [Example 9]
test target: Human CGRP Receptor (Homo sapiens, UniProt O60894+Q16602)
modifier sign: <
pIC50: 6.00
//
compound: N#Cc1ccc2c(n1)[C@H](OC(=O)N1CCC(n3c(=O)[nH]c4ncccc43)CC1)CC[C@@H](c1cccc(F)c1F)C2 (relative stereo) [Example 4]
test target: Human CGRP Receptor (Homo sapiens, UniProt O60894+Q16602)
modifier sign: =
pIC50: 9.36
//
compound: O=C(O[C@@H]1CC[C@@H](c2cccc(F)c2F)Cc2cccnc21)N1CCC(N2CCc3ccccc3NC2=O)CC1 (relative stereo) [Example 3]
test target: Human CGRP Receptor (Homo sapiens, UniProt O60894+Q16602)
modifier sign: =
pIC50: 8.90
//
compound: O=C(O[C@@H]1CC[C@@H](c2cccc(F)c2F)Cc2cccnc21)N1CCC(n2c(=O)[nH]c3ncccc32)CC1 [Example 21]
test target: Human CGRP Receptor (Homo sapiens, UniProt O60894+Q16602)
modifier sign: =
pIC50: 9.92
//
compound: O=C(O[C@@H]1CC[C@@H](c2ccc(F)c(F)c2)Cc2cccnc21)N1CCC(n2c(=O)[nH]c3ncccc32)CC1 (relative stereo) [Example 12]
test target: Human CGRP Receptor (Homo sapiens, UniProt O60894+Q16602)
modifier sign: =
pIC50: 8.13
//
compound: Nc1cnc2c(c1)C[C@H](c1cccc(F)c1F)CC[C@H]2NC(=O)N1CCC(n2c(=O)[nH]c3ncccc32)CC1 [Example 14]
test target: Human CGRP Receptor (Homo sapiens, UniProt O60894+Q16602)
modifier sign: =
pIC50: 9.60
//
compound: O=C(C[C@@H]1CC[C@@H](c2cccc(F)c2F)Cc2cccnc21)N1CCC(n2c(=O)[nH]c3ncccc32)CC1 (single isomer, unassigned) [Example 6]
test target: Human CGRP Receptor (Homo sapiens, UniProt O60894+Q16602)
modifier sign: =
pIC50: 9.05
//
compound: Nc1ccc2c(n1)[C@H](OC(=O)N1CCC(n3c(=O)[nH]c4ncccc43)CC1)CC[C@@H](c1cccc(F)c1F)C2 [Example 17]
test target: Human CGRP Receptor (Homo sapiens, UniProt O60894+Q16602)
modifier sign: =
pIC50: 9.10
//
compound: CN(C)c1cnc2c(c1)C[C@H](c1cccc(F)c1F)CC[C@H]2OC(=O)N1CCC(n2c(=O)[nH]c3ncccc32)CC1 [Example 15]
test target: Human CGRP Receptor (Homo sapiens, UniProt O60894+Q16602)
modifier sign: =
pIC50: 9.01
//
compound: O=C(O[C@@H]1CC[C@@H](c2cccc(F)c2F)Cc2cccnc21)N1CCC(n2c(=O)[nH]c3ncccc32)CC1 (relative stereo) [Example 2]
test target: Human CGRP Receptor (Homo sapiens, UniProt O60894+Q16602)
modifier sign: =
pIC50: 9.64
//
compound: O=C(O[C@@H]1CC[C@@H](c2cccc(F)c2F)Cc2ccc(Cl)nc21)N1CCC(n2c(=O)[nH]c3ncccc32)CC1 [Example 19]
test target: Human CGRP Receptor (Homo sapiens, UniProt O60894+Q16602)
modifier sign: =
pIC50: 9.12
//
compound: O=C1CCC(c2cccc(F)c2F)CCC1OC(=O)N1CCC(n2c(=O)[nH]c3ncccc32)CC1 (centres unmarked) [Example 1]
test target: Human CGRP Receptor (Homo sapiens, UniProt O60894+Q16602)
modifier sign: =
pIC50: 8.54
//
compound: CN(C)c1ccc2c(n1)[C@H](OC(=O)N1CCC(n3c(=O)[nH]c4ncccc43)CC1)CC[C@@H](c1cccc(F)c1F)C2 [Example 18]
test target: Human CGRP Receptor (Homo sapiens, UniProt O60894+Q16602)
modifier sign: =
pIC50: 9.11
//
compound: O=C(C[C@@H]1CC[C@H](c2cccc(F)c2F)Cc2cccnc21)N1CCC(n2c(=O)[nH]c3ncccc32)CC1 (relative stereo) [Example 5]
test target: Human CGRP Receptor (Homo sapiens, UniProt O60894+Q16602)
modifier sign: =
pIC50: 8.39
